From: PubChem BioAssay (NCI)

# Test system: HCT-116 colon
# test name: NCI-60 one-dose screen, 48 h (100 = growth as untreated, 0 = no growth, -100 = all killed)
# conditions used: 10 µM unless noted
About 83,000 compounds went through this panel and 20% of them were active in at least one assay; those are over-represented in the sample as a whole.
test readout: growth (%)
Give just the number in %; leave the unit off.

[ask] Record lookup: for HCT-116 colon, what growth belongs to Cn1cc(-c2nonc2-c2c[nH]c3ccc(F)cc23)c2cccnc21 ?
[reply] 90.9

[ask] Please tell me: growth of CCN(CC)S(=O)(=O)c1ccc(OC)c(NC(=O)c2[nH]c(C)c3c2CCCCC3=O)c1 , system HCT-116 colon?
[reply] 33.7

[ask] What measured growth is associated with CCOc1nc(-c2ccccc2)cc2c(O)c(C(=O)N/N=C/c3ccc(O)cc3O)[nH]c(=O)c12 on HCT-116 colon?
[reply] 18.6

[ask] I'm curious: which growth was measured for COc1cc(C)c(C2C(C#N)=C(N)Oc3n[nH]c(-c4cccs4)c32)cc1C(C)C (centres undefined) tested on HCT-116 colon?
[reply] 103

###

# Tested on: SK-MEL-5 melanoma
# test name: NCI-60 one-dose screen, 48 h (100 = growth as untreated, 0 = no growth, -100 = all killed)
# conditions used: 10 µM unless noted
# Method: Growth inhibition of the SK-MEL-5 human tumor cell line is measured as a screen for anti-cancer activity. Cells are grown in 96 well plates and exposed to the test compound for 48 hours. Compounds are tested at a single concentration, which is 10^-5 M for most compounds. The reported endpoint is percent growth (GI% or GIPRCNT), where numbers from 0 - 100% represent growth inhibition, and numbers from -100% - 0 represent cell death. For example, a value of 40 represents 60% growth inhibition. […]
Compounds without any hit were thinned out: in the full panel of roughly 83,000, 20% have a hit.
test readout: growth (%)
Record the value in %, omitting the unit from your answer.

[ask] Give recorded growth with SK-MEL-5 melanoma for the following compound: COc1ccc(S(=O)(=O)N2CCN(C)CC2)cc1NC(=O)c1[nH]c(C)c2c1CCCCC2=O
[reply] 43.7

[ask] Hi! What's the reported growth for COc1ccc2nc(NC(=O)CSc3nnc4n3S(=O)(=O)c3ccccc3N4c3ccccc3)sc2c1 on SK-MEL-5 melanoma?
[reply] 99.1

[ask] Observed growth on SK-MEL-5 melanoma for O=C(Nc1cccc2[nH]c(C(F)(F)F)nc12)c1ccc(-n2cnnn2)cc1 , please.
[reply] 87.2

[ask] Checklist item: growth tested on SK-MEL-5 melanoma, entry O=C1c2cccc3cccc(c23)C(=O)N1CCCCCN1CCN(CCCCCOc2ccc(-c3nc4ccc(N5CCOCC5)cc4[nH]3)cc2)CC1 , value?
[reply] 96.7

[ask] Give growth (SK-MEL-5 melanoma) of the following compound: CCN(CC)c1ccc(-c2cc(-c3cc(OC)c(OC)c(OC)c3)nc(N3CCOCC3)c2C#N)cc1
[reply] -83.3

[ask] growth of O=C(COc1ccc(/C=C2\CSc3ccccc3C2=O)cc1)Nc1nccs1 on SK-MEL-5 melanoma?
[reply] 142

[ask] // fetch SK-MEL-5 melanoma growth for CN(C)[C@@H]1C(=O)C(C(=O)NCc2nc3[nH]cnc(=S)c3[nH]2)=C(O)[C@@]2(O)C(=O)C3=C(O)c4c(O)cccc4[C@@](C)(O)[C@H]3C[C@@H]12
[reply] 75.5

[ask] # returns recorded growth (system: SK-MEL-5 melanoma) for CC(=O)O[C@H]1CC[C@]2(C)[C@H]3CC=C4[C@@H]5CC(C)(C)CC[C@]5(C(=O)NCCNCCNCCN)CC[C@@]4(C)[C@]3(C)CC[C@H]2C1(C)C
[reply] 90.7

[ask] Query for SK-MEL-5 melanoma: what growth does the record show for O=C(COc1cccc(/C=C2\COc3ccc(Cl)cc3C2=O)c1)c1ccc(Cl)cc1 ?
[reply] 94.3

[ask] What value of growth on SK-MEL-5 melanoma does C=C1c2nc3ccccc3n2C=C(c2ccc(Cl)cc2)N1Cc1ccc(OC)cc1 have?
[reply] 72.3

[ask] Item Cc1ccc(NS(=O)(=O)c2ccc(-c3cnc(C4CC4)o3)cc2)cc1C with SK-MEL-5 melanoma - growth?
[reply] -3.9

[ask] Record lookup: for SK-MEL-5 melanoma, what growth belongs to CCOC(=O)c1sc2nc(-c3cccc(OC)c3)nc(N3CCOCC3)c2c1C ?
[reply] 85.5

[ask] Write down the reported growth of OC(COc1cccc2ccccc12)CN1CCN(c2ccccc2Cl)CC1 (centres undefined) , test system: SK-MEL-5 melanoma.
[reply] 90.7

[ask] Query the reported growth for SK-MEL-5 melanoma; item: CN1CCN=C1c1ccc(NC(=O)c2ccc(C(=O)Nc3ccc(C4=NCCN4C)cc3)cc2)cc1
[reply] 84.7
